Data credit: patent US20240132624A1

- Assay Target: T1, cyno FcRn/b2M (cyno, UniProt Q8SPV9 24-297; Q8SPW0 21-119, biotinylated)
- T1 construct: bought recombinant biotinylated protein (Immunitrack ITF05 or ACRO FCM-C82W5); also called cFcRn; cFcRn/cb2M
- T1 sequence (Q8SPV9 24-297 limits assumed, chain 1 of 2): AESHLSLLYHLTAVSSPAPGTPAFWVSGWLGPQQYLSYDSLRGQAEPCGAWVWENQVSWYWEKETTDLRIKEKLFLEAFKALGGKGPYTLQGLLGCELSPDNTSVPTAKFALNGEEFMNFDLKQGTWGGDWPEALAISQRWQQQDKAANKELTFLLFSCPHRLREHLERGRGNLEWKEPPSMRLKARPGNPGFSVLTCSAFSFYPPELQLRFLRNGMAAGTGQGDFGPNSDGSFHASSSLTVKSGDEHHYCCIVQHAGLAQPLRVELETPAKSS
- T1 sequence (Q8SPW0 21-119 limits assumed, chain 2 of 2): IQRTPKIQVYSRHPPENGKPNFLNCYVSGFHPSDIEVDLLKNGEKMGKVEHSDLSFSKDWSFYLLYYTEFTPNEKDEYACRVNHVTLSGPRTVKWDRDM
- Experimental Details: SPR off-rate; pH 7.4 vs pH 6.0;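 further: surface plasmon resonance with diluted periplasmic extracts flowed over ligand surfaces, 120 s association and 600–3600 s dissociation at 25 °C, running buffer containing 150 mM NaCl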
Below, each entry is listed with its recorded kd ratio pH 7.4/6.0.
Measurement Label: kd ratio pH 7.4/6.0

[[record]]
binder = "T0263018B11 W100cG (VHH, name in Kabat numbering, FLAG3-His6 tagged) VHH: EVQLVESGGGVVQPGGSLRLSCAASGFTFSSYAMYWVRQAPGKGLEWVSAISSGGGSTDYADSVKGRFTISRDNSKNTLYLQMNSLRPEDTALYYCAADTLYTSLTGYSYWGQGTLVTVSS"
measurement_label = "kd ratio pH 7.4/6.0"
recorded_number = 75

[[record]]
binder = "T0263018B11 F27L (VHH, name in Kabat numbering, FLAG3-His6 tagged) VHH: EVQLVESGGGVVQPGGSLRLSCAASGLTFSSYAMYWVRQAPGKGLEWVSAISSGGGSTDYADSVKGRFTISRDNSKNTLYLQMNSLRPEDTALYYCAADTLYTSLTWYSYWGQGTLVTVSS"
measurement_label = "kd ratio pH 7.4/6.0"
recorded_number = 48

